- experimentSummary: PG9 antibody small-molecule binding – biochemical, TR-FRET, confirmation (AID 651571)
- experimentalConditions: at 6.7 µM
About 1,300 (87%) of roughly 1,500 compounds were called active. No stated cut-off is given here; in the data, active means inhibition above about 9%; inactive means the rest. The set was probably picked from earlier hits. A selection follows.
Possible outcomes: y = active, n = inactive

> print(dat)
                                    compound  discretelabel
 1  O=C(N=C1SC2CS(=O)(=O)CC2N1Cc1ccccc1)c1ccccc1 (stereo not given)              y
 2  O=C1COc2ccc(C(=O)COC(=O)c3ccccc3Cl)cc2N1              y
 3       COC(=O)c1ccc(NC(=S)Nc2cccc(C)n2)cc1              y
 4  CC(=O)c1sc2nc(SCC(=O)N3CCCCC3)[nH]c(=O)c2c1C              y
 5  O=C(O)CCC(=O)Nc1nc2ccc([N+](=O)[O-])cc2s1              n
 6  O=C(Nc1cccc(S(=O)(=O)Nc2ccc(Cl)cc2)c1)c1ccc2c(c1)OCCO2              y
 7  CCOC(=O)c1c(C)[nH]c(C(=O)OCC(=O)c2ccc(OC)cc2OC)c1C              y
 8  Cc1cc(C)cc(NC(=O)C2CCCN(S(=O)(=O)c3ccc4[nH]c(=O)ccc4c3)C2)c1 (stereo not given)              y
 9  O=C(C1=C(O)C(=O)N(Cc2ccccc2)C1c1ccco1)c1ccco1 (stereo not given)              y
10  Cc1cc2c(cc1C)N1C(=O)c3cc4ccccc4cc3NC(=O)C1C(=O)N2 (stereo not given)              y

Where do the numbers come from? From PubChem BioAssay AID651571.
